Taken from the supplement of paper PMC7877785.

test description: self-splicing fitness, log relative to wild type (ln ratio); higher = more splicing; Tetrahymena group I intron in knt gene, E. coli kanamycin selection, DiMSum; sequences stand for … in CUCUCU…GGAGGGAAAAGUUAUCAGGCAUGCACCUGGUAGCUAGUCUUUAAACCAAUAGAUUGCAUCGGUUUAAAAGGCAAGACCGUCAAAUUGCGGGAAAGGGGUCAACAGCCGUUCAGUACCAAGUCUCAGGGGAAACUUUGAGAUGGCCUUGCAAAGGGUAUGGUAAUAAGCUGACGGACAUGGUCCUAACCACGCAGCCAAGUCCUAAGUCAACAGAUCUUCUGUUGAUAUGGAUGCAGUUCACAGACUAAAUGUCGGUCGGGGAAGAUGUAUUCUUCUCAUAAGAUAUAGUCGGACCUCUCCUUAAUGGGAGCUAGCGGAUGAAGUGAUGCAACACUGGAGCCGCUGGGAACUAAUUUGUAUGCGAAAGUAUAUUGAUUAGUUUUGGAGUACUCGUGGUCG;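 further: selection with 25 µg/mL kanamycin versus none on LB agar overnight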
condition summary: 30 °C

sequence chain | self-splicing fitness (ln)
UGUGAGCAAUAUUACGAGUU | -2.72
AUUUAGCAAUAUUACGGGAC | -2.36
CUUCAGCAAUAUUACGCUCG | -2.42
AAAUAGCAAUAUUACGGUCC | -1.33
UAACAGCAAUAUUACGUCGC | -3.59
CGGCAGCAAUAUUACGAUGC | -3.41
GCAAAGCAAUAUUACGUCCA | -1.64
ACCAAGCAAUAUUACGCAUU | -2.81

---

Consider the following sequences and their measured self-splicing fitness (ln) readings.
test description: self-splicing fitness, log relative to wild type (ln ratio); higher = more splicing; Tetrahymena group I intron in knt gene, E. coli kanamycin selection, DiMSum; sequences stand for … in CUCUCU…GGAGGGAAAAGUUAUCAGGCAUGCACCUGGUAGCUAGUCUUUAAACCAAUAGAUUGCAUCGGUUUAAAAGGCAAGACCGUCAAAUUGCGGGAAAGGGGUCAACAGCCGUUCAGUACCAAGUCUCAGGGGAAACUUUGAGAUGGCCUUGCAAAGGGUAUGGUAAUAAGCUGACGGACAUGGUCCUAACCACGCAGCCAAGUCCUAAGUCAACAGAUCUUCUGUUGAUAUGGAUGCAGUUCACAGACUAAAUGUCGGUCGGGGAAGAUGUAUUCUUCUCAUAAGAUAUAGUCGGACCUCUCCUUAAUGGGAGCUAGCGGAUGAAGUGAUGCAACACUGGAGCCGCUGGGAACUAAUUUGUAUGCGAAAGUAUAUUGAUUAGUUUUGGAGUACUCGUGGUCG
condition summary: 30 °C

sequence chain | self-splicing fitness (ln)
AGGAAGCAAUAUUACGCCGA | -1.95
UUUAAGCAAUAUUACGGCAC | -2
AUCAAGCAAUAUUACGUAAG | -2.05
UCUUAGCAAUAUUACGUCCU | -1.97

---

test description: self-splicing fitness, log relative to wild type (ln ratio); higher = more splicing; Tetrahymena group I intron in knt gene, E. coli kanamycin selection, DiMSum; sequences stand for … in CUCUCU…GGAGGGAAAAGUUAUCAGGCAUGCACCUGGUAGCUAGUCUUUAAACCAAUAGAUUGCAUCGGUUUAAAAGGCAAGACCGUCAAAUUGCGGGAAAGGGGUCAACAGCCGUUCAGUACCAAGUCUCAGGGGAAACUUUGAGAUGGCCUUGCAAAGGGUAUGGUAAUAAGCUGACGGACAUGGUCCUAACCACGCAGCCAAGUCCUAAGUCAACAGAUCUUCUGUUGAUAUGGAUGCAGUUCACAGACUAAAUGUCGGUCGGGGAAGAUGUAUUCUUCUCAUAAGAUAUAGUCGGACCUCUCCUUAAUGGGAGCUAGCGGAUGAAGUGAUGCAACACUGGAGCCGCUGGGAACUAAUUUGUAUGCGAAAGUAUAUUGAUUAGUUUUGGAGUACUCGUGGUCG
condition summary: 37 °C

sequence chain | self-splicing fitness (ln)
AGUUAGCAAUAUUACGACAC | 0.204
AACGAGCAAUAUUACGGAGG | -2.38
ACUGAGCAAUAUUACGAUCU | -0.653
UCAAAGCAAUAUUACGGCGU | -0.201
AUGCAGCAAUAUUACGGAGU | -1.44
UUACAGCAAUAUUACGCUAC | -1.96
GCUAAGCAAUAUUACGCCUA | -0.198
GGGCAGCAAUAUUACGUUCA | -0.158
AGCUAGCAAUAUUACGUACU | -0.144
UAACAGCAAUAUUACGGAAG | -1.93
AGACAGCAAUAUUACGAUUG | -3.15
CUAAAGCAAUAUUACGUGGU | -2.73
CCAAAGCAAUAUUACGCGCU | -3.13
AUUAAGCAAUAUUACGGCUA | -0.122
UGCUAGCAAUAUUACGACAG | 0.337
UACCAGCAAUAUUACGUCAA | -0.33
CCUAAGCAAUAUUACGGUUG | -2.07
AGUCAGCAAUAUUACGGGAG | -1.41
GCAUAGCAAUAUUACGUAGU | -1.51
CAUAAGCAAUAUUACGCAUA | -1.71
GGACAGCAAUAUUACGAGUA | -1.79
GUGGAGCAAUAUUACGAAUU | -3.14
AGCCAGCAAUAUUACGGUGC | -2.28
CUAAAGCAAUAUUACGAGAG | -0.601
UCUAAGCAAUAUUACGUCAC | 0.446
AAUUAGCAAUAUUACGCAGG | -1.89
GACGAGCAAUAUUACGCCUG | -1.56
GGUAAGCAAUAUUACGAACA | -0.383
UCGCAGCAAUAUUACGAUCA | -1.18
UUCCAGCAAUAUUACGGGGG | -1.57
UUUAAGCAAUAUUACGCAAG | -0.275
UCGAAGCAAUAUUACGGUAG | -1.61
AGCAAGCAAUAUUACGGAGA | -2.35
UGCUAGCAAUAUUACGAGCC | -0.681
CGACAGCAAUAUUACGCUCA | -0.503
GUGAAGCAAUAUUACGAUAU | -0.103
GUUGAGCAAUAUUACGAACA | -1.69
CGCUAGCAAUAUUACGGCAU | -0.622
UUAAAGCAAUAUUACGCGAU | -0.953
UGAUAGCAAUAUUACGCACG | -0.216
UCGCAGCAAUAUUACGCUUC | -1.68
UAUGAGCAAUAUUACGUUUG | -1.8
GAACAGCAAUAUUACGCCUU | 0.356
GAGUAGCAAUAUUACGGAAU | -1.32
UCCUAGCAAUAUUACGAUUU | -1.36
AGGCAGCAAUAUUACGGCCU | -2.37
AUUUAGCAAUAUUACGAAUA | -0.575
CCCGAGCAAUAUUACGCUGA | -2.26
CUGCAGCAAUAUUACGUACU | -1.69
ACUAAGCAAUAUUACGUCAU | -2.28
UGUGAGCAAUAUUACGAACA | -0.543
CGCUAGCAAUAUUACGACCG | -0.347
CAUUAGCAAUAUUACGACAA | -2.09
GUCUAGCAAUAUUACGAGUU | -1.32
UCCGAGCAAUAUUACGUAUC | -2.07
GGGGAGCAAUAUUACGACUA | -0.539
AGUAAGCAAUAUUACGUAUC | -0.681
UAGCAGCAAUAUUACGCCAG | -0.751
AAUGAGCAAUAUUACGUGUG | -1.65

---

test description: self-splicing fitness, log relative to wild type (ln ratio); higher = more splicing; Tetrahymena group I intron in knt gene, E. coli kanamycin selection, DiMSum; sequences stand for … in CUCUCU…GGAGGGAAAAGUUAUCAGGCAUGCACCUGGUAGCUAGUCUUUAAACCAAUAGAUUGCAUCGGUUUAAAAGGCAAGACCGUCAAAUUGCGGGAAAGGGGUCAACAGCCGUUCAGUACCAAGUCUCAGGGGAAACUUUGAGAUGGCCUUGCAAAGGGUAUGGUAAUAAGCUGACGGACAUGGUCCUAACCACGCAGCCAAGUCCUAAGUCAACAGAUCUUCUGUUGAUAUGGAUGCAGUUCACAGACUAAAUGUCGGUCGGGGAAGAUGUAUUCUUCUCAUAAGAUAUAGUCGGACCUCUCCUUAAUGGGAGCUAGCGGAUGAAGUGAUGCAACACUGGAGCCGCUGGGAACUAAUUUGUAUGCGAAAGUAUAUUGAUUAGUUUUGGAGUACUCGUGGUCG
condition summary: 30 °C

sequence chain | self-splicing fitness (ln)
ACUCAGCAAUAUUACGUGCG | -0.485
CUCCAGCAAUAUUACGAGUG | -2.45
CAUUAGCAAUAUUACGCCGG | -0.963
UAGAAGCAAUAUUACGCAAG | -2.33
UAAAAGCAAUAUUACGGCGG | -0.373
GACUAGCAAUAUUACGCAAU | -1.34
CGCAAGCAAUAUUACGUAAU | -3.89
GAGAAGCAAUAUUACGUAUU | -3.16
GUAUAGCAAUAUUACGUGCG | -1.4
ACGAAGCAAUAUUACGCCCG | -0.0902
AGUGAGCAAUAUUACGGACG | -1.16
GCUUAGCAAUAUUACGUGCA | -1.11
UCGGAGCAAUAUUACGAUUC | -0.553
CCAGAGCAAUAUUACGCCAU | -2.03
GGAAAGCAAUAUUACGGGUG | -1.91
AAUUAGCAAUAUUACGUACA | -0.782
UCUAAGCAAUAUUACGUUAA | -3.72
UUUCAGCAAUAUUACGUAGU | -3.95
GUAGAGCAAUAUUACGCCUC | -0.746
UAAAAGCAAUAUUACGUCGA | -1.39
CUUAAGCAAUAUUACGCGUU | -4.44
ACGUAGCAAUAUUACGGAUU | -2.5
GUAAAGCAAUAUUACGAAAC | -1.83
AACGAGCAAUAUUACGCGUU | -4.34
UGAAAGCAAUAUUACGCUGA | -2.09
CACCAGCAAUAUUACGAUUG | -0.914
GAUGAGCAAUAUUACGGUUU | -2.06
CAAGAGCAAUAUUACGUAGU | -3.51
ACCCAGCAAUAUUACGGUAA | -1.26
AAUCAGCAAUAUUACGCGUG | -0.227
AGCGAGCAAUAUUACGGCGC | -2.72
AUCAAGCAAUAUUACGCGCA | -0.314
GGUAAGCAAUAUUACGAACU | -1.25
GGUAAGCAAUAUUACGCGAA | -1.27
UGUCAGCAAUAUUACGGCCU | -0.452
AACGAGCAAUAUUACGUGCA | -2.58
GUCAAGCAAUAUUACGUAGU | -1.21
CAACAGCAAUAUUACGUCCA | -1.75
GGCUAGCAAUAUUACGUUCC | -1.62
ACGAAGCAAUAUUACGCUCU | -1.35
GUCAAGCAAUAUUACGGAAU | -2.07
CGAGAGCAAUAUUACGUAAG | -2.59
UUAGAGCAAUAUUACGGGAU | -3.45
GAACAGCAAUAUUACGCUUC | -4.44
AUUCAGCAAUAUUACGACGU | -0.0483
ACUUAGCAAUAUUACGCGGU | -3.26
AAAGAGCAAUAUUACGGUAG | -3.9
UCAGAGCAAUAUUACGUGGC | -3.85
UGGUAGCAAUAUUACGUCUG | -0.683
AUAGAGCAAUAUUACGCUCG | -0.665
GUUAAGCAAUAUUACGAUUU | -0.759
AAGAAGCAAUAUUACGCGUU | -2.74
UGCUAGCAAUAUUACGUCUC | -3.59
